Test system: SpTbr T-box DNA-binding domain (GST fusion);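 note: protein at 200 nM in PBS on universal double-stranded arrays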
Sequence: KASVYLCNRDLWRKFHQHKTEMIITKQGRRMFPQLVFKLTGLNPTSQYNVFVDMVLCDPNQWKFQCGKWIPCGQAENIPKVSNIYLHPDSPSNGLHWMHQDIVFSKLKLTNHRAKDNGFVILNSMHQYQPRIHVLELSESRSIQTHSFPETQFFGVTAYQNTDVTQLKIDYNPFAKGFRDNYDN
Assay: PBM E-score of 8-mer (E-score (dimensionless, -0.5 to 0.5)); Tbr is Tbrain of the sea star Patiria miniata (Pm) or the sea urchin Strongylocentrotus purpuratus (Sp); higher = stronger binding preference
Settings: the construct has about 5 more residues each side
Whole data set: some 33,000 sequences, median “E-score (dimensionless, -0.5 to 0.5)” near -0.046, cut for the highest 2% near 0.36. Only a selection was taken, and the highest values are over-represented in it overall.
Tag: rule met if measured PBM E-score of 8-mer is not below -0.002, rule not met if it is.

[[record]]
primary_sequence = "CGAACGAG"
group_label = "rule met"

[[record]]
primary_sequence = "ACGCAGGC"
group_label = "rule not met"

[[record]]
primary_sequence = "ATCAAATA"
group_label = "rule not met"

[[record]]
primary_sequence = "GATAGCCC"
group_label = "rule not met"


// switching to the query sequence
Reported PBM E-score of 8-mer reaches at least -0.002 for CGTCGACA ? rule met
